Item-by-item account of LONGEST UNINTERRUPTED SLEEP BOUT 10 mg/kg
# System: adult, male Wistar rats
# measurement_description: Sleep-wakefulness monitoring (SCORE-2000, EEG/EMG) in rats
# Format: in vivo, rat
# condition_info: oral bolus at CT-18, 10 mg/kg, minutes
observation_type: LONGEST UNINTERRUPTED SLEEP BOUT 10 mg/kg (min)

cpd_smiles	unit_of_measurement	quantitative_readout
Cc1ccc2c(c1)Nc1sc(C)cc1C(N1CCN(CCC(=O)O)CC1)=N2	min	-3.6
Cc1cc2c(s1)Nc1ccccc1N=C2N1CCN(CCC(=O)O)CC1	min	3.1
Cc1ccc2c(c1)N=C(N1CCN(CC(C)(C)C(=O)O)CC1)c1cc(C)sc1N2	min	5.9
CC(C)c1cc2c(s1)Nc1ccccc1N=C2N1CCN(CC(C)(C)C(=O)O)CC1	min	19.9
Cc1cc2c(s1)Nc1ccccc1N=C2N1CCN(CC(C)(C)C(=O)O)CC1	min	15.5

* * *

Item-by-item account of pKi
# target_under_test: D2 (h) (Homo sapiens)
# Sequence (P14416 whole entry): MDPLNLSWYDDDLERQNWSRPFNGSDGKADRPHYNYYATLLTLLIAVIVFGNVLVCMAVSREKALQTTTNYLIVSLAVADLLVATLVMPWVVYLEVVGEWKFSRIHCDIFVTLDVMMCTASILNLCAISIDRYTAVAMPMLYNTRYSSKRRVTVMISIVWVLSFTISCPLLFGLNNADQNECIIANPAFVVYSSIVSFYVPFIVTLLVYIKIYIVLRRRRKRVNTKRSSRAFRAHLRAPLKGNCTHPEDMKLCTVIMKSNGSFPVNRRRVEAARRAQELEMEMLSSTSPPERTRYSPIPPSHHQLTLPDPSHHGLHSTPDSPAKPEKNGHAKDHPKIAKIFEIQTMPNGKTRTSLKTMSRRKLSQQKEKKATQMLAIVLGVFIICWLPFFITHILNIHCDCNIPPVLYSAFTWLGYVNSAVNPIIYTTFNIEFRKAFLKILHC
# measurement_description: Dopamine D2 binding assay
# condition_info: Table 7A; unit inferred
pKi: −log10 of the molar value.

cpd_smiles	pKi
CCc1cc2c(s1)Nc1ccccc1N=C2N1CCN(CC(C)(C)C(=O)O)CC1	6.71
Cc1ccc2c(c1)Nc1sc(C)cc1C(N1CCN(CC(C)(C)C(=O)O)CC1)=N2	6.01
Cc1cc2c(s1)Nc1ccccc1N=C2N1CCN(CCC(=O)O)CC1	5.61
